measured_on: UniProt:Q13873
Sequence (Q13873 whole entry, looked up): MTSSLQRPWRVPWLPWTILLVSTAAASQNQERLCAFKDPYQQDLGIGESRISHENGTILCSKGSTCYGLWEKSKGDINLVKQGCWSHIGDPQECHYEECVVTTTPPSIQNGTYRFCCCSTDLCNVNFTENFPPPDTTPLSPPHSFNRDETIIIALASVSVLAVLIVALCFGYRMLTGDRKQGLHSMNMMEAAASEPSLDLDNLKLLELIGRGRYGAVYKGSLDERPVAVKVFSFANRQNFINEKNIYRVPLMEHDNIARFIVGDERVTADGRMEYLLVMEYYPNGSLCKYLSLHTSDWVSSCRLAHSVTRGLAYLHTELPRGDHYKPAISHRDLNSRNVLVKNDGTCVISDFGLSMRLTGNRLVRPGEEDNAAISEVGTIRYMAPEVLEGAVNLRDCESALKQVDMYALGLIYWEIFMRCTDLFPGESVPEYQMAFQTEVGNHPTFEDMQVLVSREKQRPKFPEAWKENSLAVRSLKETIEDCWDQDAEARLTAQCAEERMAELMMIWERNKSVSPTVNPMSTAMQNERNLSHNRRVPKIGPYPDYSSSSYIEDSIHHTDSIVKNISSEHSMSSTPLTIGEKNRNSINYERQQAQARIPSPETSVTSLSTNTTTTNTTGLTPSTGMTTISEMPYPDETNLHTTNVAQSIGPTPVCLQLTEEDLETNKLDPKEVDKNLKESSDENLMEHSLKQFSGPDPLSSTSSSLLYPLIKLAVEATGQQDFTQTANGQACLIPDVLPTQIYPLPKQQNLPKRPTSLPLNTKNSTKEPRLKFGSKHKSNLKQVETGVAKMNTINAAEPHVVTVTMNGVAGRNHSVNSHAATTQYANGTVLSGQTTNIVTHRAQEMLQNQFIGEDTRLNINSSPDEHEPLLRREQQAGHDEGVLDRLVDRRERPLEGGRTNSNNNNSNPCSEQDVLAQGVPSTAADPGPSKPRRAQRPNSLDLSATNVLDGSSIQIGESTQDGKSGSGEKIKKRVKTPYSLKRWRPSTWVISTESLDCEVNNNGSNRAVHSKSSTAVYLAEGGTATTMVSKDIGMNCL
method_summary: KINOMEscan competition binding
applied_conditions: compound 10.0 µM

{"smiles_repr": "COc1cc2c(Nc3ccc(NC(=O)c4ccccc4)cc3)ncnc2cc1OCCCN1CCOCC1", "kinase still bound, per cent of control": "81%"}
{"smiles_repr": "CCCS(=O)(=O)Nc1ccc(F)c(C(=O)c2c[nH]c3ncc(Cl)cc23)c1F", "kinase still bound, per cent of control": "67%"}
{"smiles_repr": "CCN1CCN(Cc2ccc(NC(=O)c3ccc(C)c(/C=C/c4cnc5[nH]ccc5c4OC)c3)cc2C(F)(F)F)CC1", "kinase still bound, per cent of control": "6.6%"}
{"smiles_repr": "CCc1nc(-c2cccc(C)c2)c(-c2ccnc(NC(=O)c3ccccc3)c2)s1", "kinase still bound, per cent of control": "90%"}
{"smiles_repr": "CCOc1cc(N2CCC(O)CC2)ccc1Nc1ncc2c(n1)N(C)c1ccccc1C(=O)N2C", "kinase still bound, per cent of control": "100%"}
